Ref: patent US11655216B2

Target: glutathione-S-transferase (GST) tagged LXRalpha LBD (ligand binding domain) (Homo sapiens, UniProt Q13133)
Construct: purchased Invitrogen pv4655
Sequence (Q13133 209-447 limits assumed): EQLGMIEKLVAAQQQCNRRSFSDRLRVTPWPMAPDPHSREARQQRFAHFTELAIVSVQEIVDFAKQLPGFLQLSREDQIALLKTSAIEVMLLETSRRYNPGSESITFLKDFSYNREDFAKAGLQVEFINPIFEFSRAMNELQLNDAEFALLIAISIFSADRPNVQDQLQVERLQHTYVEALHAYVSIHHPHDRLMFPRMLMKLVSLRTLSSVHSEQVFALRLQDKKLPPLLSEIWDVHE
Assay: biochemical
Conditions: read-out: LXR alpha actiivty at max dose
Measured metric: Emax (%)

COc1cccc(C(O)(C(=O)N2CCC3(CCC(Oc4ccc(C(=O)N(C)C)c(Cl)c4)CC3)CC2)C(F)(F)F)c1 (single isomer, unassigned) [Example 1-1]; 22

[P] COc1cccc(C(O)(C(=O)N2CCC(CC(C)CC(C)Oc3ccc(C(=O)N(C)C)c(Cl)c3)CC2)C(F)(F)F)c1 (single isomer, unassigned) [Example 30-1]
[Q] CN(C)C(=O)c1ccc(OCCC[C@H]2CC23CCN(C(=O)[C@](O)(c2ccccc2)C(F)(F)F)CC3)nc1Cl (single isomer, unassigned) [Example 15-1]
Rank P against Q by their Emax values and give the higher one. Reply with the label of the item you choose.
Q

====

Biological target: glutathione-S-transferase (GST) tagged LXRalpha LBD (ligand binding domain) (Homo sapiens)
Construct: purchased Invitrogen pv4655
Assay: biochemical
Conditions: LXR alpha IP
Measured metric: EC50 (nM)

// known answers, use as guide
CN(C)C(=O)c1ccc(O[C@H]2C[C@@H](CC3CCN(C(=O)[C@](O)(c4ccccc4)C(F)(F)F)CC3)C2)cc1Cl (single isomer, unassigned); 381
CN(C)C(=O)c1ccc(OCCC[C@H]2CC23CCN(C(=O)[C@](O)(c2ccccc2)C(F)(F)F)CC3)nc1Cl (single isomer, unassigned); 506

[I] COc1cccc([C@@](O)(C(=O)N2CCC([C@H]3C[C@H]3CCOc3ccc(C(=O)N(C)C)c(Cl)c3)CC2)C(F)(F)F)c1 (single isomer, unassigned)
[II] COc1cccc(C(O)(C(=O)N2CCC3(CCC(Oc4ccc(C(=O)N(C)C)c(Cl)c4)CC3)CC2)C(F)(F)F)c1 (single isomer, unassigned)
Lowest EC50? choose I or II Return value: the label identifying the chosen record.
I
(I: 117 nM, II: 663 nM)

====

Target: glutathione-S-transferase (GST) tagged LXRalpha LBD (ligand binding domain) (Homo sapiens)
Construct: purchased Invitrogen pv4655
Experiment: biochemical
Conditions: potency (Inflection Point), compound-induced co-activator recruitment, TR-FRET
Measured metric: LXR alpha IP

CN(C)C(=O)c1ccc(OCCC2CC23CCN(C(=O)C2(c4ccccc4)CCCC2)CC3)cc1Cl (single isomer, unassigned) [Example 12-1]; No IP
CN(C)C(=O)c1ccc(OCCCC2CCN(C(=O)c3c(F)cccc3F)CC2)nc1Cl [Example 3-14]; No IP
COc1cccc([C@](O)(C(=O)N2CCC3(CC2)C[C@H]3CCCOc2ccc(C(=O)N(C)C)c(Cl)c2)C(F)(F)F)c1 (single isomer, unassigned) [Example 14-4]; No IP

====

Target: glutathione-S-transferase (GST) tagged LXRalpha LBD (ligand binding domain) (Homo sapiens, UniProt Q13133)
Construct: purchased Invitrogen pv4655
Assay: biochemical
Settings: potency (Inflection Point), compound-induced co-activator recruitment, TR-FRET; read-out: LXR alpha IP
Measured metric: EC50 (nM)

For orientation, consider the following solved cases.
CN(C)C(=O)c1ccc(OC2CC(CC3CCN(C(=O)[C@](O)(c4ccccc4)C(F)(F)F)CC3)C2)cc1Cl (single isomer, unassigned); 563
CN(C)C(=O)c1ccc(OCCCCC2CCN(C(=O)C(O)(c3ccccn3)C(F)(F)F)CC2)nc1Cl (stereo not shown); 1330
COc1cccc(C(O)(C(=O)N2CCC(C(C)CCCOc3ccc(C(=O)N(C)C)c(Cl)c3)CC2)C(F)(F)F)c1 (single isomer, unassigned); 236

[I] CC(CCC1CCN(C(=O)[C@](O)(c2ccccc2)C(F)(F)F)CC1)COc1ccc(C(=O)N(C)C)c(Cl)c1 (single isomer, unassigned)
[II] CN(C)C(=O)c1ccc(OC[C@@H](F)CCC2CCN(C(=O)[C@](O)(c3ccccc3)C(F)(F)F)CC2)cc1Cl (single isomer, unassigned)
Could you please tell me which of these two has the higher EC50: I or II ? Write down the label attached to your selection.
II
(II: 1490 nM, I: 436 nM)

[P] COc1cccc(C(O)(C(=O)N2CCC(C(F)CCCOc3ccc(C(=O)N(C)C)c(Cl)c3)CC2)C(F)(F)F)c1 (single isomer, unassigned)
[Q] CN(C)C(=O)c1ccc(OCCC[C@@H]2CC23CCN(C(=O)[C@@](O)(c2ccccc2)C(F)(F)F)CC3)nc1Cl (single isomer, unassigned)
[R] COc1cccc([C@@](O)(C(=O)N2CCC(C[C@@H](C)CCOc3ccc(C(=O)N(C)C)c(Cl)c3)CC2)C(F)(F)F)c1 (single isomer, unassigned)
Arrange the 3 entries by EC50 so the values rise. Labels, ranked as asked.
R, P, Q

====

Target: glutathione-S-transferase (GST) tagged LXRbeta LBD (ligand binding domain) (Homo sapiens, UniProt P55055)
Construct: purchased Invitrogen pv4658
Sequence (P55055 222-460 limits assumed): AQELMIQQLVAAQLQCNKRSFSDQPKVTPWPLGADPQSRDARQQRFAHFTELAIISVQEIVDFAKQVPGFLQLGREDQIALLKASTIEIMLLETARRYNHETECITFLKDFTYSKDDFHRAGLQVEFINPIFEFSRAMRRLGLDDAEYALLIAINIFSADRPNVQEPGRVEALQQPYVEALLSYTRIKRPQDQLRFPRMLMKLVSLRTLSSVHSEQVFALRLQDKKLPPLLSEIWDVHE
Assay: LanthaScreen TR-FRET Liver X Receptor Coactivator Assay, LXR beta
Format: biochemical
Details: LXR beta IP, potency (Inflection Point), compound-induced co-activator recruitment, TR-FRET
pEC50: −log10 of the molar value.
Measured metric: pEC50

Below, 4 molecules whose answers are already recorded.
CN(C)C(=O)c1ccc(O[C@H]2C[C@@H](CC3CCN(C(=O)[C@](O)(c4cccc(C5CC5)c4)C(F)(F)F)CC3)C2)cc1Cl (single isomer, unassigned); 8.22
CN(C)C(=O)c1ccc(OCCC2CC23CCN(C(=O)C2(c4ccc(Br)cc4)COC2)CC3)cc1Cl (single isomer, unassigned); 7.09
O=C(c1ccc(OCCCCC2CCN(C(=O)C(O)(c3ccccc3)C(F)(F)F)CC2)cc1Cl)N1CC(F)(F)C1 (single isomer, unassigned); 7.92
CN(C)C(=O)c1ccc(OCCC2CC23CCN(C(=O)C2(c4ccccc4)CCCC2)CC3)cc1Cl (single isomer, unassigned); 7.62

[a] O=C(c1ccc(OCCCCC2CCN(C(=O)[C@](O)(c3ccccc3)C(F)(F)F)CC2)cc1Cl)N1CCC[C@H]1CO (single isomer, unassigned)
[b] O=C(c1ccc(OCCCCC2CCN(C(=O)[C@](O)(c3ccccc3)C(F)(F)F)CC2)cc1Cl)N1CCC[C@@H]1CO (single isomer, unassigned)
Field: lower recorded pEC50 (choose a or b ) Write down the label attached to your selection.
b
(b: 7.68, a: 8.15)

====

Target: glutathione-S-transferase (GST) tagged LXRalpha LBD (ligand binding domain) (Homo sapiens)
Construct: purchased Invitrogen pv4655
Experiment: biochemical
Conditions: read-out: LXR alpha actiivty at max dose, efficacy (% Emax) in relation to reference dual agonist T0901317
Measured metric: Emax (%)

CCNC(=O)c1ccc(OCCCCC2CCN(C(=O)[C@](O)(c3ccccc3)C(F)(F)F)CC2)cc1Cl (single isomer, unassigned); 28

[P] COc1cccc([C@@](O)(C(=O)N2CCC(CC(C)CC(F)(F)Oc3ccc(C(=O)N(C)C)c(Cl)c3)CC2)C(F)(F)F)c1 (single isomer, unassigned)
[Q] COc1cccc([C@](O)(C(=O)N2CCC(CCCC(C)Oc3ccc(C(=O)N(C)C)c(Cl)c3)CC2)C(F)(F)F)c1 (single isomer, unassigned)
For the two items P and Q , which reports the higher Emax value? Respond using the label that marks the chosen record.
Q
(Q: 12%, P: 0%)

====

Target: glutathione-S-transferase (GST) tagged LXRbeta LBD (ligand binding domain) (Homo sapiens, UniProt P55055)
Construct: purchased Invitrogen pv4658
Sequence (P55055 222-460 limits assumed): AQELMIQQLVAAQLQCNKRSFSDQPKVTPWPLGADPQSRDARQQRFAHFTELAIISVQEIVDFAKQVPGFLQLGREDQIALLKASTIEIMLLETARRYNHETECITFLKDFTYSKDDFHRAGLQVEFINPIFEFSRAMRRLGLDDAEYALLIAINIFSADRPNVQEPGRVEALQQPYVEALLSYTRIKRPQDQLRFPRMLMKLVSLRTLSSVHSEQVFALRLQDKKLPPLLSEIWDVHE
Test: LanthaScreen TR-FRET Liver X Receptor Coactivator Assay, LXR beta
Type: biochemical
Conditions: LXR beta IP, potency (Inflection Point), compound-induced co-activator recruitment, TR-FRET
Description: While running the LanthaScreen™ TR-FRET Liver X Receptor Coactivator Assay, LXR alpha-LBD or LXR beta-LBD was added to ligand test compounds followed by addition of a mixture of a fluorescein-labelled coactivator peptide and terbium-conjugated anti-GST antibody. After an incubation period at room temperature, TR-FRET (time-resolved fluorescence resonance energy transfer) was measured using a filter-based instrument capable of TR-FRET, e.g. PerkinElmer Envision.
pEC50: −log10 of the molar value.
Measured metric: pEC50

CN(C)C(=O)c1ccc(OCCCCC2CCN(C(=O)C3(c4ccccc4)CCCO3)CC2)cc1Cl (single isomer, unassigned); 7.04
CN(C)C(=O)c1ccc(OCCCCC2CCN(C(=O)C(C)(O)c3ccccc3)CC2)cc1Cl (single isomer, unassigned); 6.45
CN(C)C(=O)c1ccc(OCCCCC2CCN(C(=O)C(O)(c3cccnc3)C(F)(F)F)CC2)nc1Cl (stereo not drawn); 8.10
CCOc1cccc([C@@](O)(C(=O)N2CCC(C[C@H]3C[C@@H](Oc4ccc(C(=O)N(C)C)c(Cl)c4)C3)CC2)C(F)(F)F)c1 (single isomer, unassigned); 7.77

[a] CN(C)C(=O)c1ccc(OCCCCC2CCN(C(=O)C(O)(c3ccccc3)C(F)(F)F)CC2)nc1Cl (single isomer, unassigned) [Example 3-16]
[b] O=C(c1ccc(OCCCCC2CCN(C(=O)C(O)(c3ccccc3)C(F)(F)F)CC2)cc1Cl)N1C[C@H]2CC[C@@H]1C2 (single isomer, unassigned)
[c] CN(C)C(=O)c1ccc(OCCC2CC23CCN(C(=O)C2(c4ccccc4C(F)(F)F)CCC2)CC3)cc1Cl (single isomer, unassigned)
[d] O=C(N[C@H]1CCOC1)c1ccc(OCCCCC2CCN(C(=O)[C@](O)(c3ccccc3)C(F)(F)F)CC2)cc1Cl (single isomer, unassigned)
Write the entries in order, lowest recorded pEC50 first. Quick reminder: the answer is the labels in the order asked.
a, d, b, c

[A] CN(C)C(=O)c1ccc(OCCC2CC23CCN(C(=O)C2(c4ccccc4)CCCN(C(=O)OC(C)(C)C)C2)CC3)cc1Cl (single isomer, unassigned)
[B] COc1cccc([C@@](O)(C(=O)N2CCC([C@H]3CC[C@@H](Oc4ccc(C(=O)N(C)C)c(Cl)c4)CC3)CC2)C(F)(F)F)c1 (single isomer, unassigned)
[C] CC(C)(C(=O)N1CCC2(CC1)CC(CCOc1ccc(C(=O)N3CCCC3)c(Cl)c1)C2)c1ccccc1
[D] CC(CCCOc1ccc(C(=O)N(C)C)c(Cl)c1)C1CCN(C(=O)C(O)(c2ccccc2)C(F)(F)F)CC1 (single isomer, unassigned) [Example 26-2]
Thanks in advance: please rank these 4 entries by pEC50, highest to lowest. When ranking, write the labels in the order the request describes.
B, D, C, A
